# EXPERIMENTAL_SYSTEM: T1, cynomolgus soluble urokinase plasminogen activator receptor (cynomolgus suPAR) (cynomolgus, UniProt Q9GK78 23-303, limits assumed)
# T1 construct: also called cynomolgus uPAR; cynoPLAUR-His
# T1 sequence (Q9GK78 23-303 limits assumed): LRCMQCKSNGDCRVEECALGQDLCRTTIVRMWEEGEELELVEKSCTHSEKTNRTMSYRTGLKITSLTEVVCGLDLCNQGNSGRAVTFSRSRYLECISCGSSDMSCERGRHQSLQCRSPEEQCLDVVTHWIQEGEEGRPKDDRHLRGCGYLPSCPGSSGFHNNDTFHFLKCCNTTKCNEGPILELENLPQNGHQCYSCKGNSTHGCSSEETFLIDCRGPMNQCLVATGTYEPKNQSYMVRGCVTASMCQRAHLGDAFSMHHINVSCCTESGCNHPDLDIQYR
# PROTOCOL_SUMMARY: BLI (Octet) off-rate screen of scFv
# koff listing for each entry below
Just the number plus its unit, please.

- BINDER: "suPAR_DB02_A08 (scFv, V domains shown, Screened as scFv) VH: QVQLVQSGAEVKKPGASVKVSCKASGYTFTTYYMHWVRQAPGQGLEWMGWIDPENGNTIYAQKFQGRVTMTRDTSTSTVYMELSSLRSEDTAVYYCARGYDVDWFVYWGQGTLVTVSS VL: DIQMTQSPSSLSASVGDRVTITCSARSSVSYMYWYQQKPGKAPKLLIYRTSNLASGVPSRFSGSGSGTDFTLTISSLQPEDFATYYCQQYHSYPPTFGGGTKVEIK"
  koff: "7.98e-05 s⁻¹"
- BINDER: "suPAR_DB01_H07 (scFv, V domains shown, Screened as scFv) VH: QVQLVQSGAEVKKPGASVKVSCKASGDTFSNYYMHWVRQAPGQGLEWMGWIDHENGSTIYAQKFQGRVTMTRDTSTSTVYMELSSLRSEDTAVYYCARGYDVDWFVYWGQGTLVTVSS VL: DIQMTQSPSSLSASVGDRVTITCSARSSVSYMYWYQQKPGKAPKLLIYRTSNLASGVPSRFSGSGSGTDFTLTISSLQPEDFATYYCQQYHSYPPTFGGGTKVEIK"
  koff: "0.000219 s⁻¹"

Moving on to another binder below.
// query Fill in: koff of suPAR_DB02_B09 (scFv, V domains shown, Screened as scFv) VH: QVQLVQSGAEVKKPGASVKVSCKASGYTFTGYYVHWVRQAPGQGLEWMGWIDHSNGNTIYDQKFQGRVTMTRDTSTSTVYMELSSLRSEDTAVYYCASGYDVDWFVYWGQGTLVTVSS VL: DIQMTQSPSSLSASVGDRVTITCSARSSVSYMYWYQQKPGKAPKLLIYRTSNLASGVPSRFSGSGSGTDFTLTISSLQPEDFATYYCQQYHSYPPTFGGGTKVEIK is ___
// result 0.000208 s⁻¹
